Reference source: ChEMBL document CHEMBL3797033

Assay: Aqueous solubility of the compound
Format: physicochemical
Conditions: aqueous; read-out: solubility
Recorded measurements of solubility, one per entry

{"MOLECULE": "CC(O[C@@H](C[C@H](Cc1ccccc1)NC(=O)[C@@H](NC(=O)N(C)Cc1csc(C(C)C)n1)C(C)C)[C@H](Cc1ccccc1)NC(=O)OCc1cncs1)OP(=O)([O-])[O-].[Na+].[Na+] (stereo not given in full)", "solubility": "> 5000 µg/mL"}
{"MOLECULE": "CC(C)c1nc(CN(C)C(=O)N[C@H](C(=O)N[C@@H](Cc2ccccc2)C[C@H](OCOP(=O)([O-])[O-])[C@H](Cc2ccccc2)NC(=O)OCc2cncs2)C(C)C)cs1.[Na+].[Na+]", "solubility": "> 5000 µg/mL"}
{"MOLECULE": "Cc1cccc(C)c1OCC(=O)N[C@@H](Cc1ccccc1)[C@H](C[C@H](Cc1ccccc1)NC(=O)[C@H](C(C)C)N1CCCNC1=O)OCOP(=O)([O-])[O-].[Na+].[Na+]", "solubility": "> 5000 µg/mL"}
{"MOLECULE": "Cc1cccc(C)c1OCC(=O)N[C@@H](Cc1ccccc1)[C@H](C[C@H](Cc1ccccc1)NC(=O)[C@H](C(C)C)N1CCCNC1=O)OC(C)OP(=O)([O-])[O-].[Na+].[Na+] (stereo not given in full)", "solubility": "> 5000 µg/mL"}
{"MOLECULE": "N#Cc1cc(Cl)cc(Oc2c(C(F)(F)F)ccn(Cc3nn(COP(=O)([O-])O)c4ncccc34)c2=O)c1.[K+]", "solubility": "12000 µg/mL"}

====

Assay: Antiviral activity against HIV assessed as inhibition of integrase
Set-up: species or system Human immunodeficiency virus
pEC50: −log10 of the molar value.

{"SMILES_STRING": "O=C(NCc1ccc(F)cc1)c1ccc2cccnc2c1O", "RELATION": "<", "pEC50": 5.00}
{"SMILES_STRING": "O=C1c2c(c(C(=O)N3CCOCC3)c3cccnc3c2O)CN1Cc1ccc(F)cc1", "RELATION": "=", "pEC50": 8.47}
{"SMILES_STRING": "CN(c1c2c(c(O)c3ncccc13)C(=O)N(Cc1ccc(F)cc1)C2)S(C)(=O)=O", "RELATION": "=", "pEC50": 8.77}
{"SMILES_STRING": "O=C1c2c(cc3cccnc3c2O)CN1Cc1ccc(F)cc1", "RELATION": "=", "pEC50": 7.00}

====

Target: Protease (Human immunodeficiency virus 1, UniProt Q9YQ12, M46I)
Sequence (Q9YQ12 entry or part of it M46I): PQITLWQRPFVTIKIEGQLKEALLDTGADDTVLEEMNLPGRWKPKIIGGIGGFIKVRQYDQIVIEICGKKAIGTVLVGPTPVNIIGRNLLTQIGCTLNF
Test: Binding affinity to HIV1 protease M46I mutant
pKi: −log10 of the molar value.
MEASURE_NAME: pKi

{"COMPOUND": "CC[C@H](C)CN(C[C@@H](O)C(Cc1ccccc1)N(C(=O)OC)[C@H]1CCC(=O)N1)S(=O)(=O)c1cccc2ncsc12 (stereo partly specified)", "REPORTED_VALUE": 7.68}

====

Test: Inhibition of HIV Integrase assessed as suppression pre-Integrase complex catalyzed strand transfer to a labeled target piece of DNA
Parameters: species or system Human immunodeficiency virus

{"SMILES_STRING": "O=C(NCc1ccc(F)cc1)c1nc(N2CCCCS2(=O)=O)c2cccnc2c1O", "IC50 (nM)": 44}

====

Items are presented alongside their recorded Ki.
Target: Protease (Human immunodeficiency virus 1, UniProt Q9YQ12, V82F)
Sequence (Q9YQ12 entry or part of it V82F): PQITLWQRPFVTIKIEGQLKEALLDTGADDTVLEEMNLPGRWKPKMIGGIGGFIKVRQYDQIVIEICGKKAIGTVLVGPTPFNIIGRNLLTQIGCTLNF
Assay: Inhibition of HIV1 protease V82F mutant after 48 hrs by micro-titer plate assay
MEASURE_NAME: Ki (nM)

{"SMILES_STRING": "COc1ccc(S(=O)(=O)N(CC(C)C)[C@@H](O)[C@H](Cc2ccccc2)n2cc(CNC(=O)c3ccc(CNC(=O)OC(C)(C)C)cc3)nn2)cc1", "REPORTED_VALUE": 13}
{"SMILES_STRING": "COc1ccc(S(=O)(=O)N(CC(C)C)[C@@H](O)[C@H](Cc2ccccc2)n2cc(COC(=O)N[C@H]3Cc4ccccc4[C@H]3O)nn2)cc1", "REPORTED_VALUE": 10}
